FYI, the data here is from paper PMC11881662.

Tested on: plasmid pBR322
ASSAY METHOD TEXT: Ethidium bromide assay, DNA-binding effects on plasmid pBR322
RUN CONDITIONS: EtBr-DNA complex, compound 10 μM, 25 °C 30 min; no drug = 100% fluorescence
Measured Decrease in fluorescence (%) pBr322 accompanies every entry in the list below.

| COMPOUND | U | Decrease in fluorescence (%) pBr322 |
| --- | --- | --- |
| O=C(O)C(/C=C/c1ccc(Cl)cc1)=N\Nc1nc(-c2ccc(Cl)cc2)cs1 | % | 53.40 |
| O=C(O)C(/C=C/c1c(Cl)cccc1Cl)=N\Nc1nc(-c2ccc([N+](=O)[O-])cc2)cs1 | % | 55.56 |
| COc1ccc(-c2csc(N/N=C(/C=C/c3c(Cl)cccc3Cl)C(=O)O)n2)cc1 | % | 51.61 |
| COc1ccc(-c2csc(N/N=C(/C=C/c3ccc(Cl)cc3)C(=O)O)n2)cc1 | % | 62.36 |
| O=C(O)C(/C=C/c1ccc(Cl)cc1)=N\Nc1nc(-c2ccccc2)cs1 | % | 63.44 |
| COc1cccc2c1C(=O)c1c(O)c3c(c(O)c1C2=O)C[C@@](O)(C(=O)CO)C[C@@H]3O[C@H]1C[C@H](N)[C@H](O)[C@H](C)O1 [DOX, doxorubicin, reference compound] | % | 100 |
| Cc1ccc(-c2csc(N/N=C(/C=C/c3c(Cl)cccc3Cl)C(=O)O)n2)cc1 | % | 62.01 |
| O=C(O)C(/C=C/c1c(Cl)cccc1Cl)=N\Nc1nc(-c2ccccc2)cs1 | % | 54.84 |
| O=C(O)C(/C=C/c1c(Cl)cccc1Cl)=N\Nc1nc(-c2ccc(Br)cc2)cs1 | % | 61.65 |
| CN(Cc1cnc2nc(N)nc(N)c2n1)c1ccc(C(=O)N[C@@H](CCC(=O)O)C(=O)O)cc1 [MTX, Methotrexate, reference compound] | % | 100 |
| O=C(O)C(/C=C/c1ccc(Cl)cc1)=N\Nc1nc(-c2ccc(Br)cc2)cs1 | % | 53.76 |
| O=C(O)C(/C=C/c1ccc(Cl)cc1)=N\Nc1nc(-c2ccc(F)cc2)cs1 | % | 60.93 |
| O=C(O)C(/C=C/c1ccc(Cl)cc1)=N\Nc1nc(-c2ccc([N+](=O)[O-])cc2)cs1 | % | 56.21 |
| COc1cc(Cc2cnc(N)nc2N)cc(OC)c1OC [TMP, trimethoprim, reference compound] | % | 100 |
| O=C(O)C(/C=C/c1c(Cl)cccc1Cl)=N\Nc1nc(-c2ccc(Cl)cc2)cs1 | % | 64.16 |
| O=C(O)C(/C=C/c1c(Cl)cccc1Cl)=N\Nc1nc(-c2ccc(F)cc2)cs1 | % | 70.97 |

====

System: poly(dG-dC)2
ASSAY METHOD TEXT: Ethidium bromide assay, DNA-binding effects on poly
RUN CONDITIONS: EtBr-DNA complex, compound 10 μM, 25 °C 30 min
Decrease in fluorescence (%) Poly (dG-dC)2 strictly less than 60% = Condition met. Otherwise Condition not met.

| TEST SMILES | ASSIGNED CATEGORY |
| --- | --- |
| O=C(O)C(/C=C/c1ccc(Cl)cc1)=N\Nc1nc(-c2ccc(Cl)cc2)cs1 | Condition met |
| O=C(O)C(/C=C/c1c(Cl)cccc1Cl)=N\Nc1nc(-c2ccc(Cl)cc2)cs1 | Condition not met |
| O=C(O)C(/C=C/c1c(Cl)cccc1Cl)=N\Nc1nc(-c2ccc(F)cc2)cs1 | Condition met |
| O=C(O)C(/C=C/c1c(Cl)cccc1Cl)=N\Nc1nc(-c2ccc(Br)cc2)cs1 | Condition not met |
| COc1ccc(-c2csc(N/N=C(/C=C/c3ccc(Cl)cc3)C(=O)O)n2)cc1 | Condition not met |
| Cc1ccc(-c2csc(N/N=C(/C=C/c3c(Cl)cccc3Cl)C(=O)O)n2)cc1 | Condition not met |
| O=C(O)C(/C=C/c1ccc(Cl)cc1)=N\Nc1nc(-c2ccc(F)cc2)cs1 | Condition not met |
| O=C(O)C(/C=C/c1c(Cl)cccc1Cl)=N\Nc1nc(-c2ccc([N+](=O)[O-])cc2)cs1 | Condition not met |
| O=C(O)C(/C=C/c1ccc(Cl)cc1)=N\Nc1nc(-c2ccc(Br)cc2)cs1 | Condition met |
| O=C(O)C(/C=C/c1ccc(Cl)cc1)=N\Nc1nc(-c2ccccc2)cs1 | Condition not met |
| O=C(O)C(/C=C/c1ccc(Cl)cc1)=N\Nc1nc(-c2ccc([N+](=O)[O-])cc2)cs1 | Condition met |

====

EXPERIMENTAL TARGET: recombinant human DHFR (Homo sapiens)
Sequence (P00374 1-187): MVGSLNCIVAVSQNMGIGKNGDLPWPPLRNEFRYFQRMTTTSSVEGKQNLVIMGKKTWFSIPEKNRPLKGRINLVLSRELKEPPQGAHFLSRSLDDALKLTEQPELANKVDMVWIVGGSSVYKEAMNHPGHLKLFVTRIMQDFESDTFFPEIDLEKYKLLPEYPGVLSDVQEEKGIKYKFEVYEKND
ASSAY METHOD TEXT: Dihydrofolate reductase
READOUT KIND: IC50 (µM)

| TEST SMILES | READOUT KIND | NUMERIC RESULT |
| --- | --- | --- |
| O=C(O)C(/C=C/c1ccc(Cl)cc1)=N\Nc1nc(-c2ccc(Cl)cc2)cs1 | IC50 | 36.2 |
| O=C(O)C(/C=C/c1c(Cl)cccc1Cl)=N\Nc1nc(-c2ccc(Br)cc2)cs1 | IC50 | 60.3 |
| O=C(O)C(/C=C/c1c(Cl)cccc1Cl)=N\Nc1nc(-c2ccc([N+](=O)[O-])cc2)cs1 | IC50 | 63.2 |

====

Measured Decrease in fluorescence (%) Poly (dA-dT)2 accompanies every entry in the list below.
System: poly(dA-dT)2
ASSAY METHOD TEXT: Ethidium bromide assay, DNA-binding effects on poly
RUN CONDITIONS: EtBr-DNA complex, compound 10 μM, 25 °C 30 min
READOUT KIND: Decrease in fluorescence (%) Poly (dA-dT)2

| TEST SMILES | NUMERIC RESULT |
| --- | --- |
| Cc1ccc(-c2csc(N/N=C(/C=C/c3c(Cl)cccc3Cl)C(=O)O)n2)cc1 | 55.74 |
| O=C(O)C(/C=C/c1ccc(Cl)cc1)=N\Nc1nc(-c2ccc(F)cc2)cs1 | 52.83 |
| O=C(O)C(/C=C/c1c(Cl)cccc1Cl)=N\Nc1nc(-c2ccccc2)cs1 | 54.80 |
